- System: RXF 393 renal
- Procedure summary: NCI-60 one-dose screen, 48 h
- Assay setup: 10 µM unless noted
Compounds without any hit were thinned out: in the full panel of roughly 83,000, 20% have a hit. The source made the active and inactive calls. The calls were made as follows: active = growth percent below 10; inactive = the rest.
Result category, one only: yes = active, no = inactive

Previously resolved entries follow.
>>> category_label("COc1ccc(CCN2CCCN3C2=Nc2ccccc2S3(=O)=O)cc1")
"yes"
>>> category_label("CN(C)c1ccc(/C=C(\\C#N)c2nc3ccccc3c(=O)[nH]2)cc1")
"no"
>>> category_label("C/C(=N/N=C(N)N)c1ccc(N)cc1")
"no"
>>> category_label("CNc1ccc(CSc2ccc(Cl)cc2)cc1")
"no"
>>> category_label("Cc1cc2c(cc1[N+](=O)[O-])NC(CNC(C)C)CC2 (stereo unspecified)")
"no"

Per the records of this test, what outcome belongs to `Fc1ccc(-c2nnc(/C=C/c3cn(-c4ccccc4)nc3-c3ccccc3)o2)cc1` ?
no

Next compound up: `COc1ccc2nc(-c3ccc(-n4cncc4-c4ccc(OC)c(N)c4)cc3)sc2c1`
no

Next compound up: `COc1ccc2c(c1)C(=O)c1c-2c(OCCN(C)C)nc2cc(OC)ccc12`
yes

Next compound up: CN(CCOc1ccc(CC2SC(=O)NC2=O)cc1)c1ccccn1 (stereo unspecified)
no

Next compound up: CCCCC1Nc2nc(SC)n(C)c(=O)c2CN(Cc2ccccc2)C1=O (stereo unspecified)
no

Next compound up: `COc1ccc(OC)c2c1[nH]c(=O)c1c3ccccc3cn21`
yes

###

- Test system: SK-OV-3 ovarian
- Procedure summary: NCI-60 one-dose screen, 48 h (100 = growth as untreated, 0 = no growth, -100 = all killed)
- Assay setup: 10 µM unless noted
This is part of a sample that, as a whole, favours compounds with a hit. Of some 83,000 tested, about 20% had one in any assay.
Measured property: growth (%)
Numeric answer only, unit % assumed.

Below are worked cases with known answers.
>>> measured("CCCC[N+](CCCC)=c1ccc2nc3c(C)cc(N(CC)CC)cc3sc-2c1")
-8.75
>>> measured("CN(C)CCCN1c2nc3ccccc3cc2Sc2cc3ccccc3nc21")
-35.3

For the molecule `Oc1[nH]c2ccccc2c1/C=c1/ccc2c(c1)N=C(c1cc(F)cc(F)c1)N=2` , what growth is on record?
85

Next molecule up: `CN(C)c1nc(N)nc(Cn2c(-c3nonc3N)nc3ccccc32)n1`
88.8

Next molecule up: `CC1=NN(c2ccccc2Cl)C(=O)/C1=C\c1cn(S(=O)(=O)c2ccc(C)cc2)c2ccccc12`
105

Next molecule up: `COc1c(C)c2c(c(O)c1C/C=C(\C)CCC(=O)OCCN1CCOCC1)C(=O)OC2`
31.4

Next molecule up: `CC[C@H](C)C(=O)O[C@H]1C[C@@H](C)C=C2C=C[C@H](C)[C@H](CC[C@@H]3C[C@@H](O)CC(=O)O3)[C@H]21`
83.7

Next molecule up: `C[C@]12CC[C@@H]3c4ccc(O)c([N+](=O)[O-])c4CC[C@H]3[C@@H]1CC[C@@H]2NS(=O)(=O)c1cccc(Br)c1`
80.3

Next molecule up: `O=C1CC(=O)N(c2ccccc2)O1`
98.4

###

- Test system: 786-0 renal
- Procedure summary: NCI-60 one-dose screen, 48 h
- Assay setup: 10 µM unless noted
Compounds without any hit were thinned out: in the full panel of roughly 83,000, 20% have a hit. Active and inactive are the calls of the source. How the source made its calls: active means growth percent below 10; inactive means the rest.
Result category, one only: 1 = active, -1 = inactive

Previously resolved entries follow.
>>> category_label("c1ccc(N2CCN(c3nncc4ccccc34)CC2)nc1")
-1
>>> category_label("Nc1nc(Cl)c2[nH]cnc2n1")
-1
>>> category_label("CN(CCOc1ccc(CC2SC(=O)NC2=O)cc1)c1ccccn1 (configuration not stated)")
-1

Per the records of this test, what outcome belongs to `Nc1nc(N)c([N+](=O)[O-])c(=O)[nH]1` ?
-1

Next compound up: CCC1(c2ccccc2)Oc2ccccc2-n2c(C#N)c3ccccc3c2C1=O (configuration not stated)
-1

###

- System: SN12C renal
- Procedure summary: NCI-60 one-dose screen, 48 h (100 = growth as untreated, 0 = no growth, -100 = all killed)
- Assay setup: 10 µM unless noted
The panel holds about 83,000 compounds, 20% with a hit somewhere; the sample as a whole holds those more often. Calls of active or inactive are those of the source. Rule for the calls: active = growth percent below 10; inactive = the rest.
Let's look at some compounds and their measured growth.

Below are worked cases with known answers.
>>> measured("CCC[C@H](N[C@@H](C)C(=O)N1[C@H](C(=O)O)C[C@@H]2CCCC[C@@H]21)C(=O)OCC")
"101% (inactive)"
>>> measured("COc1cc(/C=C/C(=O)Nc2ccc3c(c2)/C(=C\\c2cccn2C)C(=O)N3)cc(OC)c1OC")
"41.2% (inactive)"
>>> measured("O=C(/C(=C/c1cccc([N+](=O)[O-])c1)c1ccccc1)c1ccccc1")
"35.6% (inactive)"
>>> measured("Cc1c(C)c(N2C(=O)C=CC2=O)c(C)c(C)c1N1C(=O)C=CC1=O")
"104% (inactive)"
>>> measured("COc1ccc(-c2cc(Cc3cccs3)c(=O)n(Cn3ccc4ccccc43)n2)cc1")
"97.7% (inactive)"
>>> measured("CCN(CC)c1ccc(C(O)C2=CC(=O)c3ccccc3C2=O)cc1 (configuration not stated)")
"-28.1% (active)"
>>> measured("COc1ccc(C(=O)COc2cccc(/C=C3\\Oc4ccc5ccccc5c4C3=O)c2)cc1")
"75% (inactive)"
>>> measured("Cc1c(C(N)=O)sc2ncn(Cc3ccccc3)c(=O)c12")
"97.8% (inactive)"
>>> measured("NC(=O)NN=C(C1CC1)C1CC1")
"108% (inactive)"
>>> measured("Cn1c(=O)c2nc(SCc3ccccc3)n(C)c2n(C)c1=O")
"90.4% (inactive)"

For the compound `CC(=O)NCCSC(=O)C(=O)SCCNC(C)=O` , what growth is on record?
99.4% (inactive)

Next compound up: `CN=C(NC)N/N=C(C)\C=N\NC(=NC)NC`
96.4% (inactive)

Next compound up: `COC(=O)[C@]1(CCSC)N[C@H](c2cn(-c3ccccc3)nc2C)[C@@H]2C(=O)N(c3ccc(C)cc3)C(=O)[C@@H]21`
101% (inactive)

###

Let's look at some compounds and their measured growth.
- System: SF-539 CNS
- Procedure summary: NCI-60 one-dose screen, 48 h (100 = growth as untreated, 0 = no growth, -100 = all killed)
- Assay setup: 10 µM unless noted
This is part of a sample that, as a whole, favours compounds with a hit. Of some 83,000 tested, about 20% had one in any assay. Activity calls are given as the source filed them. How the source made its calls: active means growth percent below 10; inactive means the rest.

Below are worked cases with known answers.
>>> measured("Cc1ccc(NC(=O)COC(=O)c2ccc(S(=O)(=O)N3CCCCCC3)cc2)cc1")
"105% (inactive)"
>>> measured("Nc1nc2ncc(CCNc3ccc(C(=O)NC(CCC(=O)O)C(=O)O)cc3)nc2c(=O)[nH]1 (centres undefined)")
"94.3% (inactive)"
>>> measured("CCN1C2=C(SC(=S)C1=C1SC(C(=O)OC)=C(C(=O)OC)S1)SC(=Nc1ccc(OC)cc1)C2=O")
"-24.1% (active)"

For the compound `NS(=O)(=O)c1ccc(NC2=C(Cl)C(=O)c3ccccc3C2=O)cc1` , what growth is on record?
89.6% (inactive)

Next compound up: `COc1ccc(-c2noc(N)c2-c2cc(OC)c3c(c2)OCO3)cc1`
9.14% (active)

Next compound up: `COc1ccccc1[C@H]1c2[nH]c3ccccc3c2C[C@H]2C(=O)N(CCCCCCC(=O)NO)CC(=O)N12`
40.2% (inactive)

###

Let's look at some molecules and their measured growth.
- Test system: SR leukemia
- Procedure summary: NCI-60 one-dose screen, 48 h (100 = growth as untreated, 0 = no growth, -100 = all killed)
- Assay setup: 10 µM unless noted
About 83,000 compounds went through this panel and 20% of them were active in at least one assay; those are over-represented in the sample as a whole. Activity calls are given as the source filed them. How the source made its calls: active means growth percent below 10; inactive means the rest.

Below are worked cases with known answers.
>>> measured("S=c1[nH]nc2sc3ccccc3n12")
"88.5% (inactive)"
>>> measured("CC(C)C/C(=N\\NC(=O)c1ccncc1)c1cc(Cl)ccc1O")
"6.34% (active)"
>>> measured("Clc1ccc(-n2cnc3c(Cl)ncnc32)cc1Cl")
"19.5% (inactive)"
>>> measured("ClC1=C(Cl)C(=C2C(Cl)=C(Cl)C(Cl)=C2Cl)C(Cl)=C1Cl")
"103% (inactive)"
>>> measured("O=C(O)c1ccc(NC(=O)c2cccc(Nc3ccnc(C(F)(F)F)c3)c2)cc1")
"86.1% (inactive)"
>>> measured("O=C1/C(=C/c2ccc([N+](=O)[O-])o2)Oc2ccc(Cl)cc21")
"5.52% (active)"
>>> measured("CC1=CC(=O)C(C(C)=Nc2ccccc2Cl)C(=O)O1 (stereo unspecified)")
"118% (inactive)"
>>> measured("COc1ccc(C(=O)C(C)Br)cc1OC (stereo unspecified)")
"18.6% (inactive)"

For the molecule `CC(c1cc(Cl)ccc1O)c1cc(Cl)ccc1O` , what growth is on record?
53.3% (inactive)

Next molecule up: `Fc1ccc(-c2nnc(/C=C/c3cn(-c4ccccc4)nc3-c3ccccc3)o2)cc1`
65.7% (inactive)

Next molecule up: `Cc1ccccc1-c1cc(Cc2ccccc2O)c(=O)[nH]n1`
92.5% (inactive)

Next molecule up: COc1cc(C2CC(=O)Nc3c2cc(Br)c2ccccc32)cc(Br)c1OC (stereo unspecified)
-53.1% (active)

Next molecule up: `CN1CCN(Cc2ccc(NC(=O)c3[nH]ncc3Nc3ccnc4ccnn34)cc2)CC1`
16% (inactive)

Next molecule up: Oc1ccc(Cc2ccc(O)c(C3CC(c4ccc(Cl)cc4)=NN3)c2)cc1C1CC(c2ccc(Cl)cc2)=NN1 (stereo unspecified)
3.43% (active)

Next molecule up: CN1CCCC1c1cccnc1 (stereo unspecified)
85.7% (inactive)

Next molecule up: `CCOC(=O)/C(=C/c1ccccc1)C(=O)c1ccccc1`
6.68% (active)
